# Target Desc: recombinant human NR2F6 protein (Homo sapiens, UniProt P10588)
# Assay Method Text: Biochemical NR2F6 binding assay (EnSpire label-free)
# Applied Conditions: label-free binding to immobilized purified recombinant human NR2F6; ligands 1 nM to 100 uM, 1% DMSO
Structures can show the parent of a compound that is named as a salt.
Entries annotated with measured EC50

Past entries and their recorded results:
>  <Compound>
O=C(Nc1cccc(-c2ccccc2)c1)[C@H]1CNC[C@@H]1c1ccccc1 [Compound I-37, hydrochloride]

>  <Target Desc>
recombinant human NR2F6 protein (Homo sapiens, UniProt P10588)

>  <EC50>
1 to 10 µM

$$$$
>  <Compound>
O=C(Nc1cccc(Nc2ccccc2)c1)[C@@H]1CNC[C@H]1c1ccccc1 [Compound I-114, hydrochloride]

>  <Target Desc>
recombinant human NR2F6 protein (Homo sapiens, UniProt P10588)

>  <EC50>
1 to 10 µM

$$$$
>  <Compound>
O=C(Nc1cccc(Oc2ccc(F)cc2)c1)[C@H]1CNC[C@@H]1c1ccccc1 (racemic) [Compound I-93, hydrochloride]

>  <Target Desc>
recombinant human NR2F6 protein (Homo sapiens, UniProt P10588)

>  <EC50>
< 1 µM

$$$$
>  <Compound>
O=C(Nc1cccc(-c2cncnc2)c1)[C@@H]1CNC[C@H]1c1ccccc1 (racemic) [Compound I-53, trihydrochloride]

>  <Target Desc>
recombinant human NR2F6 protein (Homo sapiens, UniProt P10588)

>  <EC50>
> 50 µM

$$$$
>  <Compound>
O=C(Nc1cccc(-c2cccnc2)c1)c1c[nH]cc1-c1ccccc1 [Compound I-51]

>  <Target Desc>
recombinant human NR2F6 protein (Homo sapiens, UniProt P10588)

>  <EC50>
> 50 µM

$$$$
>  <Compound>
O=C(Nc1cccc(-c2ccccc2)c1)[C@@H]1CNC[C@H]1c1cccs1 (racemic) [Compound I-22, hydrochloride]

>  <Target Desc>
recombinant human NR2F6 protein (Homo sapiens, UniProt P10588)

>  <EC50>
< 1 µM

$$$$

Let us move to another entry and its EC50.
**Query** Quote EC50 with test system recombinant human NR2F6 protein (Homo sapiens, UniProt P10588) for O=C(Nc1cc2ccccc2cn1)[C@H]1CNC[C@@H]1c1ccccc1 [Compound I-38, dihydrochloride]
**Result** 1 to 10 µM

###

Below, each entry is listed with its recorded EC50.
# Target Desc: recombinant human NR2F6 protein (Homo sapiens)
# Assay Method Text: Biochemical NR2F6 binding assay (EnSpire label-free)
# Applied Conditions: label-free binding to immobilized purified recombinant human NR2F6; ligands 1 nM to 100 uM, 1% DMSO
Where a name gives a salt, the structure may show the parent alone.

The following compounds have reported results that may help.
>  <Compound>
O=C(N[C@@H]1CNC[C@H]1c1ccccc1)c1cccc2cnccc12 (racemic)

>  <EC50>
1 to 10 µM

$$$$
>  <Compound>
c1ccc([C@H]2CNC[C@@H]2OCc2cccc3cnccc23)cc1 (racemic) [Compound I-73, dihydrochloride]

>  <EC50>
> 50 µM

$$$$
>  <Compound>
O=C(Nc1ccc(C2CCCCC2)cc1)[C@@H]1CNC[C@H]1c1ccccc1 (racemic) [Compound I-87, hydrochloride]

>  <EC50>
1 to 10 µM

$$$$
>  <Compound>
O=C(Nc1cccc(Oc2ccncc2)c1)[C@H]1CNC[C@@H]1c1ccccc1 (racemic) [Compound I-98, dihydrochloride]

>  <EC50>
> 50 µM

$$$$
>  <Compound>
O=C(Nc1csc2cnccc12)[C@H]1CNC[C@@H]1c1ccccc1 [Compound I-32, dihydrochloride]

>  <EC50>
1 to 10 µM

$$$$
>  <Compound>
Cc1ccc(O[C@H]2C[C@H](NC(=O)[C@H]3CNC[C@@H]3c3ccccc3)C2)cn1 (racemic) [Compound I-102, dihydrochloride]

>  <EC50>
1 to 10 µM

$$$$

**Query** Report EC50, nothing else, for this compound: O=C(N[C@H]1C[C@H](Oc2cccnc2)C1)[C@H]1CNC[C@@H]1c1ccccc1 (racemic) [Compound I-101, dihydrochloride]
**Result** 10 to 50 µM

###

This section presents molecules with their documented pEC50 values.
# Target Desc: recombinant human NR2F6 protein (Homo sapiens, UniProt P10588)
# Assay Method Text: Biochemical NR2F6 binding assay (EnSpire label-free)
# Applied Conditions: label-free binding to immobilized purified recombinant human NR2F6; ligands 1 nM to 100 uM, 1% DMSO
# Experimental: Purified recombinant human NR2F6 protein was dissolved in immobilization buffer at pH 4.5 and then immobilized in EnSpire-LFB High-Sensitivity User-Activated Plates at the concentration of 50 μg/well plate and left in incubation for 16 h at 4° C. […] The final readings were taken over a period of 30 minutes. The label-free responses were measured as shifts in reflected wavelength and are expressed in picometers (pm). […]
pEC50: −log10 of the molar value. Counter-ions that a name gives are not always drawn.

Look over these answered cases.
>  <Molecule>
Cc1cc2c(NC(=O)[C@@H]3CNC[C@H]3c3ccccc3)cccc2cn1 (racemic) [Compound I-15, dihydrochloride]

>  <Value>
5.00 to 6.00

$$$$
>  <Molecule>
CN(C(=O)[C@@H]1CNC[C@H]1c1ccccc1)c1cccc(-c2cccnc2)c1 (racemic)

>  <Value>
< 4.30

$$$$
>  <Molecule>
S=C(Nc1cccc2cnccc12)O[C@@H]1CNC[C@H]1c1ccccc1 (racemic)

>  <Value>
5.00 to 6.00

$$$$
>  <Molecule>
O=C(c1ccccc1)c1cccc(NC(=O)[C@H]2CNC[C@@H]2c2ccccc2)c1 (racemic) [Compound I-94, hydrochloride]

>  <Value>
5.00 to 6.00

$$$$
>  <Molecule>
O=C(Nc1cccc(Nc2ccccc2)c1)[C@H]1CNC[C@@H]1c1ccccc1 (racemic) [Compound I-89, hydrochloride]

>  <Value>
> 6.00

$$$$

**Query** // Input: O=C(NCc1cccc2cnccc12)[C@H]1CNC[C@@H]1c1ccccc1 [Compound I-67, dihydrochloride] . Output its pEC50 only.
**Result** < 4.30

**Query** Return the recorded pEC50 value; entry: O=C(Nc1cccc2ncccc12)[C@@H]1CNC[C@H]1c1ccccc1 (racemic) [Compound I-17, dihydrochloride]
**Result** 4.30 to 5.00

###

# Target Desc: recombinant human NR2F6 protein (Homo sapiens)
# Sequence (P10588 1-404): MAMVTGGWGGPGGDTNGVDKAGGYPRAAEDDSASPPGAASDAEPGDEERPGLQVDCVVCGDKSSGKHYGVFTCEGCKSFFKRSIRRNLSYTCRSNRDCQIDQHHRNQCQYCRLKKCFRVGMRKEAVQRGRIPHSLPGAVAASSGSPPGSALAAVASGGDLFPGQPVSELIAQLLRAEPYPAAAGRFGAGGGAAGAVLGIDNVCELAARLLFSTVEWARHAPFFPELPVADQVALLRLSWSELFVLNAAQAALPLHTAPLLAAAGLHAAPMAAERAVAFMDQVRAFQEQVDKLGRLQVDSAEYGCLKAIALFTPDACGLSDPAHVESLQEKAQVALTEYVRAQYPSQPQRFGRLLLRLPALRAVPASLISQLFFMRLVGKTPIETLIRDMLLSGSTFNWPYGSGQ
# Assay Method Text: Biochemical NR2F6 binding assay (EnSpire label-free)
# Applied Conditions: label-free binding to immobilized purified recombinant human NR2F6; ligands 1 nM to 100 uM, 1% DMSO
Where a name gives a salt, the structure may show the parent alone.
Some compounds, each annotated with its measured EC50.

>  <Compound>
O=C(Nc1cccc(Nc2cccnc2)c1)[C@H]1CNC[C@@H]1c1ccccc1 (racemic) [Compound I-106, dihydrochloride]

>  <Target Desc>
recombinant human NR2F6 protein (Homo sapiens)

>  <EC50>
< 1000 nM

$$$$

**Query** Item O=C(Nc1cccc2ccccc12)[C@H]1CNC[C@@H]1c1ccc(C(F)(F)F)cc1 [Compound I-109, hydrochloride] : provide EC50
**Result** 1000 to 10000 nM

**Query** Indicate the recorded EC50 value for this compound: O=C(NCc1cccc2cnccc12)[C@@H]1CNC[C@H]1c1ccccc1 [Compound I-95, dihydrochloride]
**Result** 1000 to 10000 nM

**Query** Given O=C(Nc1cccc2c1OCCO2)[C@H]1CNC[C@@H]1c1ccccc1 (racemic) [Compound I-65, hydrochloride] , respond with its EC50.
**Result** > 50000 nM

**Query** Dear colleague, please send me the reported EC50 for O=C(Nc1cccc(OC2CCOCC2)c1)[C@@H]1CNC[C@H]1c1ccccc1 (racemic) [Compound I-86, hydrochloride] when you can.
**Result** 1000 to 10000 nM

**Query** In one line, give reported EC50 of the entry O=C(Nc1cc2ccccc2cn1)[C@@H]1CNC[C@H]1c1ccccc1 [Compound I-43, dihydrochloride] .
**Result** 1000 to 10000 nM

**Query** Answer with reported EC50 of N#Cc1ccc(Oc2cccc(NC(=O)[C@@H]3CNC[C@H]3c3ccccc3)c2)cc1 [Compound I-112, hydrochloride]
**Result** < 1000 nM
